So I've got pIC50 readings for PDE10A (human) (Homo sapiens, UniProt Q9Y233), take a look.
pIC50: −log10 of the molar value. Where a name gives a salt, the structure may show the parent alone.

- Cc1cnc(CCN2Cc3nccc(N4CCOCC4)c3C2=O)cc1C: 6.70 to 7.00
- O=C1c2c(cccc2-c2cccc(F)c2F)CN1CCc1ccc2ccccc2n1: 6.30 to 6.70

Can you give me pIC50 for all of these, one by one?
1. CN(C)CCCn1c(CCN2Cc3cccc(-c4ccncc4)c3C2=O)nc2ccccc21 [Example 294, trifluoroacetate]
2. CCc1ccc(CCN2Cc3nccc(N4CCOCC4)c3C2=O)nc1 [compound 499, trifluoroacetate]
3. COc1ccc(-c2ccnc3c2C(=O)N(CCc2ccc4ccccc4n2)C3)cc1

["6.30 to 6.70", "> 7.00", "> 7.00"]
